# Test system: S1-Ig (12-672) (SARS-CoV; human, UniProt P59594 12-672)
# Method notes: ELISA, coated S1-IgG 12-672
Each entry below carries its recorded Reactivity S1-IgG (ELISA OD).
Numbers only here, please. The scale is OD.

These solved cases illustrate the format of a correct answer.
5D6 (antibody, V domains shown) VH: QVQLVQSGAEVKKPGASVKVSCKASGYTFTSYGISWVRQAPGQGLEWMGWISAYNGNTNYAQKLQGRVTMTTDTSTNTAYMELRSLRSDDTAVYYCAVGRYLDYWGQGTLVTVSS VL: DIQMTQSPSSLSASVGDRVTITCRASQDIRNDLGWYQQKPGKAPKRLIYAASSLQSGVPSRFSGSGSGTEFTLTISSLQPEDFATYYCLQYNSYPLTFGGGTKVEIK    0.747
1B5 (antibody, V domains shown) VH: QVQLVESGGGVVQPGRSLRLSCAASGFTFSSYGMHWVRQAPGKGLEWVAVIWYDGSNKYYADSVKGRFTISRDNSKNTLYLQMNSLRAEDTAVYYCARGDFYWFDPWGQGTLVTVSS VL: DIQMTQSPSSLSASVGDRVTITCRASQGIRSDLGWYQQRPGKTPKRLIYAASSLQSGVPSRFSGSGSGTEFTLTISSLQPEDFATYYCQQYNSYPLTFGGGTKVEIK    0.463

Query string: Quick check: Reactivity S1-IgG (ELISA OD) of 3C7 (antibody, V domains shown) VH: QVQLVESGGGVVQPGTSLRLSCAASGFTFSSYGIHWVRQAPGKGLEWVAVIWYDGSNKFYADSVKGRFTISRDNSKNTLYLQMNSLRAEDTAVYYCARDPLGYCSSTSCSYFDYWGQGTLVTVSS VL: DIQMTQSPSSVSASVGDRVTITCRASQGISNWLAWYQQKPGKAPKLLIYAASSLQSGVPSRFSGSGSGTDFTLTIRSLQPEDFATYYCQQANNFPLTFGGGTKVEIK ?
Result string: 1.09
